The entries below come with measured pKd values attached.
Experimental System: CV S-protein construct 6 trimer TP31001F (SARS-CoV-2, UniProt P0DTC2 14-1208)
Procedure Details: SPR
pKd: −log10 of the molar value.

{"Binder": "variant 6-42 (Fc fusion) VHH: EVQLVESGGGLVQPGGSLRLSCAASGDTYGSYWMGWFRQAPGKEREFVAVITSGGSTNYADSVKGRFTISADNSKNTAYLQMNSLKPEDTAVYYCTHVQNSYYYAMDVWGQGTLVTVSS", "pKd": 8.11}
{"Binder": "variant 6-32 (Fc fusion) VHH: EVQLVESGGGLVQPGGSLRLSCAASGFTLDYYDMGWFRQAPGKEREFVALISWSGGSTYYADSVKGRFTISADNSKNTAYLQMNSLKPEDTAVYYCATDFYGWGTRERDAFDIWGQGTLVTVSS", "pKd": 10.00}
{"Binder": "variant 6-60 (Fc fusion) VHH: EVQLVESGGGLVQPGGSLRLSCAASGDTYGSYWMGWFRQAPGKEREFVATISQSGAATAYADSVKGRFTISADNSKNTAYLQMNSLKPEDTAVYYCAGLLRYSGTYYDAFDVWGQGTLVTVSS", "pKd": 10.00}
{"Binder": "variant 6-30 (Fc fusion) VHH: EVQLVESGGGLVQPGGSLRLSCAASGFAFGDSWMGWFRQAPGKEREFVATINWSGVTAYADSVKGRFTISADNSKNTAYLQMNSLKPEDTAVYYCARADGYFDYWGQGTLVTVSS", "pKd": 10.00}
